# merged literature set: log10(IC50) with Aldo-keto reductase family 1 member B1 (Bos taurus)
Note: values are log10 of IC50 expressed in nM.

COc1ccc(/C=C2\SC(=O)N(CC(O)(O)C(F)(F)F)C2=O)cc1 = 4.24
O=C1S/C(=C\c2cccc(O)c2)C(=O)N1CC(O)(O)C(F)(F)F = 4.09
CN(CC(=O)O)C(=S)c1cccc2ccccc12 = 2.86
O=C1NC2(C(=O)N1S(=O)(=O)c1ccc(Br)cc1)c1ccccc1-c1ccccc12 = 3.73
O=C(O)CN1C(=O)/C(=C/c2cccc(OCc3ccccc3)c2)SC1=S = 2.11
CC1=C(CC(=O)O)c2cccc3cccc(c23)C1=O = 2.38
O=C(O)CN1C(=O)S/C(=C\C=C\c2ccc(C(F)(F)F)cc2)C1=O = 2.48
O=C1NC2(C(=O)N1S(=O)(=O)c1ccc(Cl)cc1)c1ccccc1-c1ccccc12 = 2.95

Give one value of log10(IC50) per listed molecule.
1. COc1cc2c(cc1OC)-c1nn(CC(=O)O)c(=O)cc1CC2
2. O=c1oc2ccccc2cc1-c1nn(CNc2ccccc2Cl)c(=S)o1
3. CC(=O)Oc1cc(OCCO[N+](=O)[O-])cc2oc(-c3ccccc3)cc(=O)c12
4. O=C(CN1C(=O)S/C(=C\c2ccc(-c3ccccc3)cc2)C1=O)NO
5. COc1ccc(S(=O)(=O)N2C(=O)NC(=O)C23c2ccccc2-c2ccccc23)cc1
6. O=C(O)CN1C(=O)/C(=C\c2ccc(OCc3ccccc3)cc2)S/C1=N\c1ccccc1
7. NC(=O)COc1cccc(/C=C2\SC(=S)N(CC(=O)O)C2=O)c1
8. Cc1ccc(S(=O)(=O)N2C(=O)NC3(C2=O)c2ccccc2-c2ccccc23)cc1

Result:
1. 5.06
2. 2.49
3. 2.93
4. 4.31
5. 3.76
6. 3.69
7. 2.11
8. 3.45

Give one value of log10(IC50) per listed molecule.
1. O=c1cc(-c2ccc(O)c(O)c2)oc2cc(OCCO[N+](=O)[O-])cc(O)c12
2. NC(=O)COc1cccc(/C=C2\SC(=S)NC2=O)c1
3. O=C1S/C(=C\c2cccc(O)c2)C(=O)N1CC(=O)C(F)(F)F
4. COc1ccc(/C=C2\SC(=O)N(CC(=O)O)C2=O)cc1O

Result:
2.23
3.94
4.09
2.75

Give one value of log10(IC50) per listed molecule.
1. O=C(O)CN1C(=O)S/C(=C\c2ccc(Oc3ccccc3)cc2)C1=O
2. O=c1cc(-c2ccccc2)oc2cc(O)cc(O)c12
3. O=C(CN1C(=O)S/C(=C\c2ccc(O)cc2)C1=O)NO
4. O=C(O)CN1C(=O)/C(=C/c2ccc(OCc3ccccc3)cc2)SC1=S

Result:
1. 1.85
2. 3.89
3. 3.25
4. 2.28

Give one value of log10(IC50) per listed molecule.
1. COc1cc(/C=C2\SC(=O)NC2=O)ccc1O
2. O=C1NC(=O)C2(c3ccccc3-c3ccccc32)N1S(=O)(=O)c1ccc(Cl)cc1
3. O=c1cc(-c2ccc(O)c(O)c2)oc2cc(OCCCCO[N+](=O)[O-])cc(O)c12
4. Cc1ccc(S(=O)(=O)N2C(=O)NC(=O)C23c2ccccc2-c2ccccc23)cc1
5. O=C1NC(=O)C2(c3ccccc3-c3ccccc32)N1S(=O)(=O)c1ccc2ccccc2c1
6. NC(=O)CN1C(=O)S/C(=C\c2ccc(O)cc2)C1=O

Result:
[4.07, 3.24, 2.67, 3.36, 4.44, 3.81]
